The reported numbers originate from PubChem BioAssay (NCI).

test system: MDA-MB-435; experiment: NCI tumour cell line growth inhibition, 48 h
If the reported TGI equals or exceeds 30 µM, assign 1.0. If not, assign 0.0.

Task: Answer whether TGI of CC1CC(C)CC(NC2=NCCO2)C1 (stereo not drawn) is greater than or equal to 30 µM.
Output: 1.0

Task: Answer whether TGI of `O=C1C=CC(=O)N1C1CCCCCCCCCCC1` is greater than or equal to 30 µM.
Output: 0.0

Task: Answer whether TGI of C=C1C(O)C23CCC4C(C(=O)O)(C(=O)O)CC(OC5OC(CO)C(O)C(OC(=O)CCc6ccccc6)C5NC(=O)CC(C)C)CC4(C)C2CCC1(O)C3 (stereo not drawn) is greater than or equal to 30 µM.
Output: 1.0

Task: Answer whether TGI of `O=C(Oc1ccc(S(=O)(=O)F)cc1F)c1ccccc1Cl` is greater than or equal to 30 µM.
Output: 1.0

Task: Answer whether TGI of `CNC(=S)Nc1sc2c(c1C#N)CCCC2` is greater than or equal to 30 µM.
Output: 1.0

Task: Answer whether TGI of `C/C(=N\O)c1ccc(Nc2nc3ccccc3c3occc23)cc1` is greater than or equal to 30 µM.
Output: 1.0

Task: Answer whether TGI of `Nc1nc(-c2ccccc2)c(Cl)c(-c2cc(Cl)ccc2O)n1` is greater than or equal to 30 µM.
Output: 1.0

Task: Answer whether TGI of `Cc1ccc([N+](=O)[O-])cc1S(=O)(=O)Nc1ccc(C(=O)/C=C/c2cccs2)cc1` is greater than or equal to 30 µM.
Output: 1.0

Task: Answer whether TGI of `C1CSCCCSCCCSCCCSCCCSC1` is greater than or equal to 30 µM.
Output: 1.0

Task: Answer whether TGI of CCOC(=O)C1(O)C(=O)C2=C3C(=O)OC(C4OC(=O)c5c(c(O)c(O)c(O)c5C31)-c1c(cc(O)c(O)c1O)C(=O)OC1COC(=O)c3cc(O)c(O)c(O)c3-c3c(cc(O)c(O)c3O)C(=O)OC14)[C@@H]2O (stereo partly drawn) is greater than or equal to 30 µM.
Output: 1.0

Task: Answer whether TGI of N#CC1CNC(N)NC1N (stereo not drawn) is greater than or equal to 30 µM.
Output: 1.0

Task: Answer whether TGI of Clc1ccc(CSc2ncnc3c2ncn3C2CCCCO2)cc1 (stereo not drawn) is greater than or equal to 30 µM.
Output: 1.0

Task: Answer whether TGI of `CCN(CC)C(=S)N/N=C(\C)c1cccc(C)n1` is greater than or equal to 30 µM.
Output: 0.0

Task: Answer whether TGI of `CCOC(=O)c1sc2nc(SC)nc3c2c1NCN3C1CC1` is greater than or equal to 30 µM.
Output: 1.0

Task: Answer whether TGI of `Cc1cc(C)c(S(=O)(=O)N2CCN(S(=O)(=O)c3c(C)cc(C)cc3C)OCCCCCO2)c(C)c1` is greater than or equal to 30 µM.
Output: 1.0

Task: Answer whether TGI of `O=C1c2ccccc2-c2nnc(-c3ccc(Br)cc3)cc21` is greater than or equal to 30 µM.
Output: 1.0

Task: Answer whether TGI of `Fc1cnc(NC2CC2)nc1-c1cnc2ccc(N3CCOCC3)cn12` is greater than or equal to 30 µM.
Output: 0.0

Task: Answer whether TGI of `c1ccc2c(c1)nc1n2sc2nc3ccccc3n21` is greater than or equal to 30 µM.
Output: 1.0

====

tested on: OVCAR-8 ovarian; experiment: NCI tumour cell line growth inhibition, 48 h
measurement-label: TGI

Task: Name the recorded TGI for `Oc1ccc2ccccc2c1CN(Cc1c(O)ccc2ccccc12)C1CCCCC1` .
Output: 44.6 µM

Task: Name the recorded TGI for `O=C(/C=C/c1ccc(Cl)cc1)/C=C/c1cc2ccccc2[nH]c1=O` .
Output: 12.9 µM

Task: Name the recorded TGI for `O=c1cc(-c2ccccc2)oc2cc(Oc3nnnn3-c3ccccc3)ccc12` .
Output: > 100 µM

Task: Name the recorded TGI for COc1cc(/C=C2\C(=O)N(c3cc(Cl)ccc3Cl)C(c3ccccc3)S2(=O)=O)cc(OC)c1OC (stereo not drawn) .
Output: > 100 µM

Task: Name the recorded TGI for `CCOC(=O)c1sc2nc(SC)nc3c2c1NCN3C1CC1` .
Output: > 100 µM

Task: Name the recorded TGI for Cc1cc(O)c(C=O)c2c1C(=O)Oc1c(CO)c(O)c3c(c1O2)C(O)OC3=O (stereo not drawn) .
Output: > 100 µM

Task: Name the recorded TGI for `Cn1c(=O)[nH]c2nccnc2c1=O` .
Output: > 10 µM

Task: Name the recorded TGI for `NCCN.NCCN.[Cl-].[O]=[Os+2]=[O]` .
Output: > 100 µM

Task: Name the recorded TGI for `CN(C)N=Nc1ccccc1` .
Output: > 100 µM

Task: Name the recorded TGI for `C/C(=N\NC1=NCCN1)c1cn(C2=NCCN2)nc1C` .
Output: > 100 µM

Task: Name the recorded TGI for Clc1ccc(CSc2ncnc3c2ncn3C2CCCCO2)cc1 (stereo not drawn) .
Output: 71.5 µM

Task: Name the recorded TGI for `O=C(Nc1ccc(CN2CCOCC2)cc1)c1ccc(-c2cc(Cl)ccc2Cl)o1` .
Output: 51.3 µM

Task: Name the recorded TGI for OC1(c2ccccc2)c2ccccc2NC2=NCCN21 (stereo not drawn) .
Output: > 100 µM

Task: Name the recorded TGI for CCc1ccc(CNCC(O)c2ccccc2)cc1 (stereo not drawn) .
Output: > 100 µM

Task: Name the recorded TGI for `O=C1Nc2ccccc2C1=Nc1ccc(S(=O)(=O)Nc2nccs2)cc1` .
Output: > 100 µM

Task: Name the recorded TGI for CN1C(=O)CC2CCCN2C1=O (stereo not drawn) .
Output: > 100 µM

Task: Name the recorded TGI for `O=C1/C(=C/c2cc3c(=O)c4ccccc4sc3s2)NC(=S)N1c1ccccc1` .
Output: > 100 µM

Task: Name the recorded TGI for `CC(C)c1cc(Cl)nc(Cl)n1` .
Output: > 100 µM

Task: Name the recorded TGI for `N=C(N)N=Nc1ccc(NN=C(N)N)c2c1ncc1c2nc2sccn21` .
Output: > 100 µM

Task: Name the recorded TGI for `O=C(O)c1cccc2cccc(-c3c4ccc(=O)cc-4oc4cc(O)ccc34)c12` .
Output: > 100 µM

Task: Name the recorded TGI for `CC1=NCCc2cc3[nH]c4ccccc4c3cc21` .
Output: > 88.5 µM

Task: Name the recorded TGI for O=C1CC(=O)NC(=NN2C(=O)CSC2c2ccccc2)N1 (stereo not drawn) .
Output: > 100 µM

Task: Name the recorded TGI for `C#C[C@]1(O)CC[C@H]2[C@@H]3CCC4=CC(=NCCOC(=O)c5cccc6c(=O)c7ccccc7[nH]c56)CC[C@@H]4[C@H]3CC[C@@]21C` .
Output: 48.9 µM

====

test system: OVCAR-4 ovarian; assay: NCI tumour cell line growth inhibition, 48 h
measurement-label: TGI

Task: Name the recorded TGI for `CN(C)CCCOc1ccc(OCCCN(C)C)c2c1C(=O)c1ccccc1C2=O` .
Output: 5.18 µM

Task: Name the recorded TGI for `CCOC(=O)C1=C(NC(C)(C)C)OC/C1=N\NC(=O)Cc1ccccc1` .
Output: > 100 µM

Task: Name the recorded TGI for O=C(CC1C(=O)Nc2ccccc2S1=O)Nc1ccccc1 (centres undefined) .
Output: > 100 µM

Task: Name the recorded TGI for `C=C1OC(=O)[C@]2([C@@H](/C=C/C)C=CC(=O)[C@H]2O)[C@@H]1O` .
Output: > 100 µM

Task: Name the recorded TGI for C=C1C(O)C23CCC4C(C(=O)O)(C(=O)O)CC(OC5OC(CO)C(O)C(OC(=O)CCc6ccccc6)C5NC(=O)CC(C)C)CC4(C)C2CCC1(O)C3 (centres undefined) .
Output: > 100 µM

Task: Name the recorded TGI for `COC(=O)[C@H](NC(=O)OC(C)(C)C)[C@H]1COC(C)(C)O1` .
Output: > 100 µM

Task: Name the recorded TGI for O=C1NC2C(=O)N(Cc3ccccc3)C(=O)C2N1 (centres undefined) .
Output: > 100 µM

Task: Name the recorded TGI for CC(CC[C@@H](C)C1CCC2[C@@H]3CC(O)C4CC(O)[C@@H](O)C[C@]4(C)C3CC[C@@]21C)C(C)(C)C (some centres undefined) .
Output: > 100 µM

Task: Name the recorded TGI for `CC(C)(CN1CCCCC1)C(/C=C/c1ccc(Cl)c(Cl)c1)=N\NC(=O)N/N=C(/C=C/c1ccc(Cl)c(Cl)c1)C(C)(C)CN1CCCCC1` .
Output: 3.19 µM

====

tested on: M14 melanoma; experiment: NCI tumour cell line growth inhibition, 48 h
measurement-label: TGI

Task: Name the recorded TGI for `C=C1OC(=O)[C@]2([C@@H](/C=C/C)C=CC(=O)[C@H]2O)[C@@H]1O` .
Output: > 100 µM

Task: Name the recorded TGI for `COc1cc(C=O)cc(/C=N/c2ccccn2)c1O` .
Output: 62.2 µM

Task: Name the recorded TGI for CC(=O)C1=C(c2ccccc2)N(C2OC(CO)C(O)C(O)C2O)C(S)=C(C#N)C1c1ccc(Cl)cc1 (configuration not stated) .
Output: 46.7 µM

Task: Name the recorded TGI for `CCOC(=O)C(=O)Nc1ccc(C)c(C)c1` .
Output: > 100 µM

Task: Name the recorded TGI for `COc1ccc(NC(=O)/C(Cc2nc3ccccc3[nH]c2=O)=N\O)c(OC)c1` .
Output: > 100 µM

Task: Name the recorded TGI for `C[N+](C)(CCNC(=O)c1cccc2cc3ccccc3nc12)Cc1ccc([N+](=O)[O-])cc1` .
Output: > 100 µM

Task: Name the recorded TGI for Cc1cc2ncn(C3CCCO3)c2cc1C (configuration not stated) .
Output: > 100 µM
